Target: Proteasome subunit beta (Trypanosoma cruzi) (UniProt O96673)
Sequence (O96673 as listed by the source): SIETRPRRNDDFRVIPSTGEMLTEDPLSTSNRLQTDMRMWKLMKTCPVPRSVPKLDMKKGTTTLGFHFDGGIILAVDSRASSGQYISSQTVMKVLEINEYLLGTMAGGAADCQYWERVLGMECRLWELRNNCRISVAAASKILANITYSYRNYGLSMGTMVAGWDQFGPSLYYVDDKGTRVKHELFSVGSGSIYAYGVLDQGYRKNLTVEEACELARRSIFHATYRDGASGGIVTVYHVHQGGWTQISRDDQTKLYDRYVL
Assay: Trypanosoma cruzi proteasome chymotrypsin-like activity (TcProtChymo) assay.
Assay type: functional
Parameters: scale not given: in the data most compounds retested in dose-response had high values
Conditions: 9.37 µM
For each of the molecules below, state its Percent Effect.
Answers are plain numbers, in %.

Guide cases for Percent Effect, answers given:
Would you mind telling me what Percent Effect value was observed for O=C(c1ccco1)N1C[C@@H]2OCCN(CCN3CCCC3)[C@@H]2C1 ?
16.1

How about NC(=O)CN1CCC(NC(=O)c2ccn(-c3cccc(F)c3)n2)CC1 ?
11.1

Same lookup for COCCN1CCC2(CCCN(C(=O)c3cnoc3C)C2)C1=O (centres undefined) , please.
12.2

Lookup CC(CNC(=O)c1ccc(Cl)cc1I)N1CCCC1 (centres undefined)
27.4

Now try OCCn1cc(CN2CCN(CCOCC(F)(F)F)CC2)cn1 .
13.6

Please look at the items below and tell me Percent Effect for each one, in order.
1. CCCNC(=O)CNC(=O)CCc1ccccc1Br
2. CCc1nc(NCCCn2cccn2)c2c(n1)c(C)nn2C

[18.1, 17.6]

Hey, quick one: what's Percent Effect for each of these?
1. CCN(C(=O)CN(C)C(c1cccc(F)c1)c1ccccn1)C1CC1 (centres undefined)
2. FC(F)(F)COCCN1CCCC(c2noc(C3CC3)n2)C1 (centres undefined)
3. Cc1nc2n(n1)CC(NCc1cc(Cl)c3c(c1)OCCCO3)CC2 (centres undefined)

2.37
16.7
6.01

====

So I've got a bunch of compounds here, and I need their Percent Effect values.
Target: Arginase-2, mitochondrial (Homo sapiens) (UniProt P78540)
Sequence (P78540 whole entry): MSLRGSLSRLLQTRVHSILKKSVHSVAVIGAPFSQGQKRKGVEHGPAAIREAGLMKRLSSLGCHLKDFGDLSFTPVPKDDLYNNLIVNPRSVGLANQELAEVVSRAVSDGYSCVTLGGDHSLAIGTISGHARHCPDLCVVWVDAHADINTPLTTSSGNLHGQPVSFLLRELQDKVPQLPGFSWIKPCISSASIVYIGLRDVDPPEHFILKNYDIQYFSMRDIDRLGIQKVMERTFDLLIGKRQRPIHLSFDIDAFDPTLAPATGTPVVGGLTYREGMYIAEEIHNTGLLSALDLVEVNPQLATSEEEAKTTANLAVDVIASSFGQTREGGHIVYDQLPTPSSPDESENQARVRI
Assay: in vitro enzyme assay to detect the production of urea directly proportional to the activity of Arginase II
Assay type: functional
Design: scale not given: in the data most compounds retested in dose-response had high values
Conditions: 33.3 µM
Give bare numbers, in %.

Solved cases below.
Which Percent Effect value belongs to COc1ccc(OCCCN2CCOC(Cn3cccn3)C2)cc1 (stereo not drawn) ?
1.94

Okay, and Cc1nn(C)c(N(C)C)c1CNCc1ccccc1Cn1cncn1 ?
0.215

Same again, this time with CCc1ncc2c(n1)CN(Cc1nnc(C)o1)CC2
6.82

Okay, and CC(C)N(C)S(=O)(=O)N(C)Cc1ccc2c(c1)OCO2 ?
2.49

What do we get for CN(C)C(=O)CC1CC2(CCN(CC3CC3)CC2)c2cc(F)ccc21 (stereo not drawn) ?
-4.14

What would you report for O=C(NCC1CC1)[C@H]1C[C@H]2OCC[C@H]2N(CCc2ccccc2)C1 ?
-1.59

// query: CCN1CC(C(=O)NCc2ccccc2-n2cccn2)CC1=O (stereo not drawn)
-1.05

Now the same for Cc1noc(C(C)C)c1C(=O)NCc1cc(F)cc(F)c1
3.92

Record Percent Effect for all entries; do not skip any.
1. O=C(CCc1cccs1)N1CCCCC1Cn1cccn1 (stereo not drawn)
2. Cc1cccc(NC(=O)N2CCCn3cnc(CN4CCCC4)c3C2)c1
3. CCN(Cc1ccco1)C(=O)c1cc(OC)c2c(c1)OCCO2
4. Cc1cc(NC(=O)CN2CCn3c(nnc3C3CC3)C2)n(C)n1
5. CCn1c(C)nnc1CN(C)C1CCN(Cc2nccn2C)C1 (stereo not drawn)

1. -1.47
2. 0
3. 3.55
4. 0
5. 2.23

====

Target: Chromo domain-containing protein 1 (Saccharomyces cerevisiae (strain ATCC 204508 / S288c) (Baker's yeast)) (UniProt P32657)
Sequence (P32657 whole entry, the tested form may be a part): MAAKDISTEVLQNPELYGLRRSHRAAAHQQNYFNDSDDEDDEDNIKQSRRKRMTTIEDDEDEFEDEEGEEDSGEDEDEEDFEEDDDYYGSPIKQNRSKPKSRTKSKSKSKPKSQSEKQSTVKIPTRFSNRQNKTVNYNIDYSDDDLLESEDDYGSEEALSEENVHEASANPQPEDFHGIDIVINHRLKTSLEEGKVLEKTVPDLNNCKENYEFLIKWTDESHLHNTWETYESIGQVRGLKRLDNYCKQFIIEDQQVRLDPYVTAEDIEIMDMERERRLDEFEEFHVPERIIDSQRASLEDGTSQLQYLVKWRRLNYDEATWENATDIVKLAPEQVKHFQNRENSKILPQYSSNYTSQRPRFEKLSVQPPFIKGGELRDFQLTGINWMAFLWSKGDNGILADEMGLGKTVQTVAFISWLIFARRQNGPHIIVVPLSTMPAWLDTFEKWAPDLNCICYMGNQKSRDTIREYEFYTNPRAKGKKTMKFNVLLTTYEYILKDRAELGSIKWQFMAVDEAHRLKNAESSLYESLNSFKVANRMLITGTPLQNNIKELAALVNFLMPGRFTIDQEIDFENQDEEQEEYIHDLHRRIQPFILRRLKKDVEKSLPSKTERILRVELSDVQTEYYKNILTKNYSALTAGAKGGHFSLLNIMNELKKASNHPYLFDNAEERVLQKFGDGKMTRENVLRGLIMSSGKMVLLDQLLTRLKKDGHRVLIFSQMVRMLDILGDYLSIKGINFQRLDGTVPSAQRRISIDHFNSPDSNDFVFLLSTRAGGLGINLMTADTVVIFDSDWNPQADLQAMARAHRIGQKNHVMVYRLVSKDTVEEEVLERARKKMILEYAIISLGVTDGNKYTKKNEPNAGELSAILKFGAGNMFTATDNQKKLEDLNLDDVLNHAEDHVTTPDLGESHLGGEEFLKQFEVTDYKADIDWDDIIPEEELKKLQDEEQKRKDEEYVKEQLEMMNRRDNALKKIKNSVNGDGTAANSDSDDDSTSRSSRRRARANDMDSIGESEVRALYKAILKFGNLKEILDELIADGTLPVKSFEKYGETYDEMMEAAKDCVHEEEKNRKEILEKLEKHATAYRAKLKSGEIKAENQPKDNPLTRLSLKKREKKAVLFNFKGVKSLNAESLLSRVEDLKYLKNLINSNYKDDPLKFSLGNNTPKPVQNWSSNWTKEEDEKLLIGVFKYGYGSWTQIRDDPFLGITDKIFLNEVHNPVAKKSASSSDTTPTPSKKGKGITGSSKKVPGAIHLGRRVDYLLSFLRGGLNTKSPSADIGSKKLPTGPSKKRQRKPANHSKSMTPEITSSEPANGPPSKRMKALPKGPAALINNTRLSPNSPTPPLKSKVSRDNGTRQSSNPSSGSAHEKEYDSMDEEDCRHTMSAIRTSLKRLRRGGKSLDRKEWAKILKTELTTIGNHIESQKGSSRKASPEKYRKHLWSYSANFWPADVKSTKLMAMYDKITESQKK
Assay: ScCHD-1 Enzyme Inhibition Assay
Type: functional
Set-up: scale not given: in the data most compounds retested in dose-response had high values
Details: 30 µM
METRIC: Percent Effect (%)
Numbers only, in %.

Look up Percent Effect: Cc1ccc(CN2CCc3ncc(CNS(C)(=O)=O)n3CC2)o1
-0.506

Thanks! And CC(=O)N1CCN([C@@H]2CC[C@@H](NC(=O)c3cncc(C)c3)[C@H]2O)CC1 ?
15.5

Here is the next molecule: Cc1n[nH]c(C)c1NC(=O)CN1CCCC(CNC(=O)C(C)(C)C)C1 (centres undefined)
0.796

Now consider Cc1nc(C)n(C2CCCN(C(=O)c3ccc(NC4CC4)nc3)C2)n1 (centres undefined) and answer again.
4.04

Return reported Percent Effect values for all items listed beneath this line.
1. c1csc(-c2nc(CN3CCOC(Cn4cncn4)C3)cs2)c1 (centres undefined)
2. Cc1nc(-c2ccccc2)n(CC(=O)NCC(C)C)n1

1: -6.35; 2: -5.55

I need Percent Effect for every entry listed below, if you could help.
1. Cc1nn2c(N3CCC(O)C3)cc(-c3ccccc3)nc2c1C (centres undefined)
2. CN(CCO)Cc1nnc(C2CCN(C3CCCCC3)CC2)n1C
3. O=C(CC1CCCCC1)N1CCN(C(=O)NCc2ccccn2)CC1
4. COCCO[C@H]1CCN(Cc2cccs2)[C@H]1Cc1cccnc1
5. Cn1cc(C2CCCN2Cc2csc(C(C)(C)C)n2)cn1 (centres undefined)
6. CCCS(=O)(=O)NCC1CCOc2ccccc2C1 (centres undefined)
7. CN(Cc1nnc(C2CC2)n1C)C1CCN(Cc2ccc(F)cc2)C1 (centres undefined)
8. Cc1nnc(C2Cc3ccccc3CN2Cc2ncc(C(C)(C)C)o2)o1 (centres undefined)

-3.57
-6.36
-15
-1.24
-9.19
3.34
-10.5
-17.8

// input: 2 molecules below; output: Percent Effect for each
1. O=C1CN(Cc2nnc(-c3ccccc3Br)o2)CCN1
2. Cc1nc2cc(C(=O)N3CCCC(n4cncn4)C3)ccc2n1C (centres undefined)

1. -3.03
2. -2.87

Quick one: give me Percent Effect for each item below, same order please.
1. Cc1cnn(CC(C)NCc2csc(-c3ccsc3)n2)c1 (centres undefined)
2. Cc1ccc(OCC(=O)NS(=O)(=O)c2cccnc2)cc1C
3. c1ccc(-c2noc(CNC3CCc4ncnn4C3)n2)nc1 (centres undefined)
4. O=C(NCCn1ccnc1)c1ccn(-c2cccc(F)c2)n1
5. Cc1cccnc1NC(=O)CC1(Cn2cnnn2)CCCCC1
6. CC(NC(=O)c1ccc2c(c1)OCC(=O)N2)c1ccccc1F (centres undefined)

-20.9
-9.25
-1.02
-2.98
-13.8
-4.32

Items follow; give Percent Effect for each.
1. CC(C)(C)c1n[nH]c(C2CN(C(=O)c3cc(C4CC4)on3)CCO2)n1 (centres undefined)
2. CCn1c(C)nnc1CN(C)C1CCN(CCn2cccn2)C1 (centres undefined)

1. -10.8
2. -17.4

# credit: ChEMBL document CHEMBL3988442
